target: CB2 receptor (Homo sapiens, UniProt P34972); test: biochemical; format: binding; set-up: expressed in transfected cells; host or cells: CHO cells (membrane preparation); conditions: versus 0.1 nM [3H]CP55,940; CHO cell membranes; mean ± SEM of three to five experiments; read-out: Ki ± SEM Human CB2
Sequence (P34972 whole entry): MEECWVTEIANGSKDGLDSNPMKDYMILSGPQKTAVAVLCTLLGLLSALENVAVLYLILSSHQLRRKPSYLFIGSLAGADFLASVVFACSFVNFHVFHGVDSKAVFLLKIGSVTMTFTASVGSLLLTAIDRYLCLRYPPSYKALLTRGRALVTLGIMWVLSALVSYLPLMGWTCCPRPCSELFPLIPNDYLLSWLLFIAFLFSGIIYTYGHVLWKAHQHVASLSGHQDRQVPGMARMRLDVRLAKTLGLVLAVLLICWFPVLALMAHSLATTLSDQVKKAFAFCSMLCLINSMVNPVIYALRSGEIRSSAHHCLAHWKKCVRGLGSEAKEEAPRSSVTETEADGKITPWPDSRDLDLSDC
pKi: −log10 of the molar value.
// label = MET if pKi is not less than 8, otherwise NOT MET

>>> assigned_class("CCCC(F)Cn1cc(C(=O)C2C(C)(C)C2(C)C)c2ccccc21 (stereo not drawn) [Compound 39, XLR-11-2-fluoropentyl-isomer]")
"MET"
>>> assigned_class("O=C(Oc1cccc2cccnc12)c1cn(Cc2ccc(F)cc2)c2ccccc12")
"MET"
>>> assigned_class("CN1CCCCC(Cn2cc(C(=O)C3C(C)(C)C3(C)C)c3ccccc32)C1 (stereo not drawn) [Compound 44, AB005-azepane-isomer]")
"NOT MET"
>>> assigned_class("CCCCCn1nc(C(=O)Oc2cccc3ccccc23)c2ccccc21")
"MET"
>>> assigned_class("CCCCCn1cc(C(=O)Nc2cccc3ccccc23)c2ccccc21")
"NOT MET"
>>> assigned_class("Cc1c(C(=O)C2C(C)(C)C2(C)C)c2ccccc2n1CCCCCF")
"MET"
>>> assigned_class("CCCCCn1cc(C(=O)c2ccccc2OC)c2ccccc21")
"MET"
>>> assigned_class("O=C(c1cn(CCCCCF)c2ccccc12)C12CC3CC(CC(C3)C1)C2")
"MET"

Record "CCCCCn1nc(C(=O)Nc2cccc3ccccc23)c2ccccc21" ; criterion: pKi no lower than 8. Met?
MET
